# Target System: T1, cyno PD-1 (soluble analyte in SPR) (cyno)
# T1 construct: also called cynomolgus PD-1
# Experiment Notes: SPR (ProteOn XPR36), mAb captured on anti-human IgG Fc, cyno PD-1 as analyte, 25 C
Measured Quantity: Kd (nM)
Your answer is read as nM, so omit the unit and give the number.

# binder PD1B1087 (antibody, human IgG1, kappa, V domains shown, also called VH PD1H587; VL PD1L469) VH: QVQLVQSGSELKKPGASVKVSCKASGYTFTDYSMHWVRQAPGQGLEWMGWINIETGWPTYAQGFTGRFVFSLDTSVSTAYLQISSLKAEDTAVYFCARDYYGTYFYAMDYWGQGTLVTVSS VL: EIVLTQSPATLSLSPGERATLSCTASSSVSSSYLHWYQQKPGLAPRLLIYSTSNLASGIPDRFSGSGSGTDYTLTISRLEPEDFAVYYCHQYHRSPLTFGQGTKLEIKR ; its Kd = 11.6

# binder PD1B1094 (antibody, human IgG1, kappa, V domains shown, also called VH PD1H586; VL PD1L652) VH: QVQLVQSGSELKKPGASVKVSCKASGYTFTDYSMHWVRQAPGQGLEWMGWINIETGHPTYAQGFTGRFVFSLDTSVSTAYLQISSLKAEDTAVYFCARDYYGTYFYAMDYWGQGTLVTVSS VL: EIVLTQSPATLSLSPGERATLSCTASSSVPSSYLHWYQQKPGLAPRLLIYSTSNLASGIPDRFSGSGSGTDYTLTISRLEPEDFAVYYCHQYHRSPLTFGQGTKLEIKR ; its Kd = 12

# binder PD1B1085 (antibody, human IgG1, kappa, V domains shown, also called VH PD1H585; VL PD1L469) VH: QVQLVQSGSELKKPGASVKVSCKASGYTFTDYSMHWVRQAPGQGLEWMGWINIETGYPTYAQGFTGRFVFSLDTSVSTAYLQISSLKAEDTAVYFCARDYYGTYFYAMDYWGQGTLVTVSS VL: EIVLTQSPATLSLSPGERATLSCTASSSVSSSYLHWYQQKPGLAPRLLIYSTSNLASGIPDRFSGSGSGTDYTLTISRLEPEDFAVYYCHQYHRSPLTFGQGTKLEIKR ; its Kd = 6.45

Entry source: patent US20180355061A1
